For each of the variants below, state its abundance fitness.
B1: Far upstream element-binding protein 3, residues 75 to 150; numbered along this chain, Q96I24 (parent)
chain: RTVITEEFKVPDKMVGFIIGRGGEQISRIQAESGCKIQIASESSGIPERPCVLTGTPESIEQAKRLLGQIVDRCRN

variants of: B1; assay: abundance fitness (aPCA) (normalised: wild type 0, dead -1); higher = more abundant; growth selection in yeast, the domain comes from the species named; conditions: Homo sapiens
Give bare numbers.

VARIANT ANNOTATION: G23R
RECORDED NUMBER: -0.056
//
VARIANT ANNOTATION: Q25A
RECORDED NUMBER: -0.098
//
VARIANT ANNOTATION: I29D
RECORDED NUMBER: -0.432
//
VARIANT ANNOTATION: S59V
RECORDED NUMBER: -0.284
//
VARIANT ANNOTATION: L66S
RECORDED NUMBER: -0.064
//
VARIANT ANNOTATION: I46N
RECORDED NUMBER: 0.031
//
VARIANT ANNOTATION: K9E
RECORDED NUMBER: -0.044
//
VARIANT ANNOTATION: K64Q
RECORDED NUMBER: -0.197

Could you report abundance fitness for every entry in the following list?
1. M14L
2. L67R

Result:
1. -0.061
2. -1.01
